B1: CPEB3 Ribozyme (parent)
chain: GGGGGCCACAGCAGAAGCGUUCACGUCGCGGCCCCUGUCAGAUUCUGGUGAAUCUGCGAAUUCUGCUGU

# Variants of: B1
# assay overview: self-cleavage, relative activity (ratio to wild type); higher = more cleavage; co-transcriptional
Give self-cleavage for every item shown.

Below, 5 variants whose answers are already recorded.
>>> reported_result("A10U G17C")
0.168
>>> reported_result("G4C A13U")
0.302
>>> reported_result("A16C G41U")
0.142
>>> reported_result("C22A G50U")
0.253
>>> reported_result("A51C A52C")
0.949

# batch: return self-cleavage for each of the 8 variants below
1. C24G C32G
2. G2C U26A
3. U43C G65C
4. A52U G68C
5. G4A U67A
6. A16G
7. G1C G56C
8. U53A A59G

[0.239, 0.0328, 0.567, 0.98, 0.92, 0.946, 0.186, 0.98]

# batch: return self-cleavage for each of the 2 variants below
1. C39G A51C
2. A51U U55C

0.718
0.561

Briefly, self-cleavage measured for C39A G50C : 0.602
